Reference source: ChEMBL document CHEMBL1124212

- ASSAY TARGET: GABA-A receptor; anion channel
- ASSAY INFO: In vitro inhibition of binding to the benzodiazepine receptor in rat cerebral cortical membrane using [3H]diazepam as radioligand
PROPERTY LABEL: IC50 (nM)

Worked cases, answers included:
c1ccc2c(c1)[nH]c1cnccc12 = 1620
Oc1cc2c3ccccc3nc-2c[nH]1 = 4000
COC(=O)c1cc2ccccc2cn1 = 13200
c1ccc2c(c1)[nH]c1c2ccc2[nH]c3ccccc3c21 = 1920
CCOC(=O)c1cc2c(cn1)sc1ccccc12 = 980
CCOc1cc2c(cn1)[nH]c1ccccc12 = 24
COC(=O)c1cc2c(cn1)[nH]c1ccccc12 = 5
COc1cc2c(cn1)[nH]c1ccccc12 = 124

a. O=[N+]([O-])c1cc2c3ccccc3nc-2c[nH]1
b. CCCOc1cc2c(cn1)[nH]c1ccccc12
c. Clc1cc2c(cn1)[nH]c1ccccc12
d. Cn1c2ccccc2c2c3[nH]c4ccccc4c3ncc21
Prompt: Descending sort on IC50 required. Could you list the labels in the order requested?
Response: d, a, c, b
(d: 1160 nM, a: 125 nM, c: 45 nM, b: 11 nM)
